Reference source for all entries: patent US20240034815A1

subjectOfTest: T1, His-tagged human GPC3 (human, UniProt P51654 25-559, limits assumed)
T1 construct: Captured on HIS1K sensors in the Octet assay; also called human GPC3 antigen; Glypican 3; not shown: His tag
assayProcedure: binding assay not named for this figure; human GPC3 per legend paragraph 61
endpointName: Kd (nM)
Supply the numeric figure in nM, leaving out any unit text.

[
  {
    "binder": "humanized GPC3-A H1_L1 (antibody, V domains shown, also called [GPC3]H1_L1) VH: QVQLVQSGAEVKKPGASVKVSCKASGYTFTDYEMHWVRQAPGQGLEWMGALDPKTGDTAYSQKFQGRVTMTADKSISTAYMELSRLRSDDTAVYYCTRFYSYTYWGQGTLVTVSS VL: DVVMTQSPLSLPVTLGQPASISCRSSQSLVHSNGNTYLHWYQQRPGQSPRLLIYKVSNRFSGVPDRFSGSGSGTDFTLKISRVEAEDVGVYFCSQNTHVPPTFGSGTKLEIK",
    "measurementUnits": "nM",
    "Kd": 3.17
  },
  {
    "binder": "XENP 23061 H1.2_L1 (antibody, human IgG1, kappa, V domains shown, VH mutation (Kabat) D52N, VL WT; also called [GPC3]H1.2_L1; VH D52N; copies: 2 + 2) VH: QVQLVQSGAEVKKPGASVKVSCKASGYTFTDYEMHWVRQAPGQGLEWMGALNPKTGDTAYSQKFQGRVTMTADKSISTAYMELSRLRSDDTAVYYCTRFYSYTYWGQGTLVTVSS VL: DVVMTQSPLSLPVTLGQPASISCRSSQSLVHSNGNTYLHWYQQRPGQSPRLLIYKVSNRFSGVPDRFSGSGSGTDFTLKISRVEAEDVGVYFCSQNTHVPPTFGSGTKLEIKR",
    "measurementUnits": "nM",
    "Kd": 5.81
  },
  {
    "binder": "XENP 23066 H1_L1.3 (antibody, human IgG1, kappa, V domains shown, VH WT, VL mutation (Kabat) N28S; also called [GPC3]H1_L1.3; VL N28S; copies: 2 + 2) VH: QVQLVQSGAEVKKPGASVKVSCKASGYTFTDYEMHWVRQAPGQGLEWMGALDPKTGDTAYSQKFQGRVTMTADKSISTAYMELSRLRSDDTAVYYCTRFYSYTYWGQGTLVTVSS VL: DVVMTQSPLSLPVTLGQPASISCRSSQSLVHSSGNTYLHWYQQRPGQSPRLLIYKVSNRFSGVPDRFSGSGSGTDFTLKISRVEAEDVGVYFCSQNTHVPPTFGSGTKLEIKR",
    "measurementUnits": "nM",
    "Kd": 12.7
  },
  {
    "binder": "XENP 23073 H1_L1.10 (antibody, human IgG1, kappa, V domains shown, VH WT, VL mutation (Kabat) N30H; also called [GPC3]H1_L1.10; VL N30H; copies: 2 + 2) VH: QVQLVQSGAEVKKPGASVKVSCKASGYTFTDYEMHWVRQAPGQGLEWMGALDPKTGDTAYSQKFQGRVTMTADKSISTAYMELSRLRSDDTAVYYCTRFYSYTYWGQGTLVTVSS VL: DVVMTQSPLSLPVTLGQPASISCRSSQSLVHSNGHTYLHWYQQRPGQSPRLLIYKVSNRFSGVPDRFSGSGSGTDFTLKISRVEAEDVGVYFCSQNTHVPPTFGSGTKLEIKR",
    "measurementUnits": "nM",
    "Kd": 3.38
  }
]

Now let's try a different one.
What does the record list as Kd for XENP 23062 H1.3_L1 (antibody, human IgG1, kappa, V domains shown, VH mutation (Kabat) D52Q, VL WT; also called [GPC3]H1.3_L1; VH D52Q; copies: 2 + 2) VH: QVQLVQSGAEVKKPGASVKVSCKASGYTFTDYEMHWVRQAPGQGLEWMGALQPKTGDTAYSQKFQGRVTMTADKSISTAYMELSRLRSDDTAVYYCTRFYSYTYWGQGTLVTVSS VL: DVVMTQSPLSLPVTLGQPASISCRSSQSLVHSNGNTYLHWYQQRPGQSPRLLIYKVSNRFSGVPDRFSGSGSGTDFTLKISRVEAEDVGVYFCSQNTHVPPTFGSGTKLEIKR ?
3.13
